B1: E3 ubiquitin-protein ligase Midline-1, residues 172 to 214; numbered along this chain, O15344 (parent)
chain: GLMCLEHEDEKVNMYCVTDDQLICALCKLVGRHRDHQVAALSE

Variants of: B1
Assay: abundance fitness (aPCA) (normalised: wild type 0, dead -1); higher = more abundant; growth selection in yeast, the domain comes from the species named
Settings: Homo sapiens
reportedProperty: abundance fitness
# output: bare number, no unit

variantNotation | abundance fitness
L29H | 0.19

q: Given H33E , state its recorded abundance fitness.
a: -0.576

q: Now try E43H .
a: -0.197

q: Now try L26N .
a: 0.193

q: Now try L41G .
a: 0.051

q: Now try C27K .
a: -0.429

q: Now try Y15R .
a: 0.258

q: Now try N13P .
a: -0.567

q: Now try R32F .
a: -0.593

q: Now try L22S .
a: 0.316

q: Now try L26C .
a: 0.138
